- Tested on: TO-3-N3-2 (biotin conjugate)
- assay protocol: pull-down binding Z-score (relative to library population); higher = stronger binding
- condition set: RNA library: Library-2
value type: pull-down binding Z-score
Lab note: jot down the number only; don't add units.

// query Give the reported pull-down binding Z-score for this sequence. CAGGCUGUGGCUCUCUGAAAGUC [hsa-mir-148b]
// result 0.496

// query Input AUUAUGUGUACCUUCCUUACCCAGAUCCAUCAAGAAUCCUAGGGGCCGGCUGUUUUGUAGAUGAUAUCGUAAAAACAGAUGGUACACUUAUGAU [DMSMaPseq_invitro_SARS-CoV-2_Multi_47_ComplexLevel_1] , output reported pull-down binding Z-score.
// result 0.0322

// query Fill in pull-down binding Z-score for record AUAUGUUUACACCACUAAUUCAACCUAUUGGUGCUUUGGACAUAU [DMSMaPseq_invitro_SARS-CoV-2_Motif_171]
// result -0.311

// query Could you please provide reported pull-down binding Z-score for GUGGAGGUAGGCGAGAGUAAUAUAAUUUCUCCAGGAGAACAUCUGAGAGGGGAAGUUGCUUUCCUGCCCUGGCCCUUUCAC [hsa-mir-6076] ? Thanks!
// result 0.000368

* * *

- Tested on: G-clamp-N3 (biotin conjugate)
- assay protocol: pull-down binding Z-score (relative to library population); higher = stronger binding
- condition set: RNA library: Library-1 (pre-miRNA loops + repeats)
Label scheme for pull-down binding Z-score: bin 1 (below -0.3), bin 2 (-0.3 to below 0.2), bin 3 (0.2 or more)

// query Using the reported pull-down binding Z-score, which band applies to CACGCCGCGCCGCCGGGUCCCUCCUCCCCGGAGAGGCUG [hsa-mir-4674] ?
// result bin 3

// query Quick check: band for UUCUUCCUGGAGUCGGGGAAAAG [hsa-mir-320e]
// result bin 3

// query Please let me know in which category the item CUCGUCUCUACAAAAAAUUGAGACAGG [hsa-mir-4512] belongs.
// result bin 1

// query // bin(item) where item = CAGAGUGGGCUCACCUCUCGCCCACACUG [hsa-mir-6760]
// result bin 1

// query Please classify: GGGGUUUUUGCCUCCAACUGACUCC [hsa-mir-155]
// result bin 1

// query Consider GAGGUGGGAAGGCUGCCCCAAAUGGCCUCUAACAUCCCUUCCAGUCUCCUCCUC [hsa-mir-6127] . To which pull-down binding Z-score class does it belong?
// result bin 2

// query Assign a bin to GCCAGCAACCUGAUUACCCCUCUUUGGC [hsa-mir-6851]
// result bin 1

// query Assign a category based on measured pull-down binding Z-score for GGUGGGGGCUCUGAGUGGGGAAAGUGGGGGCCUAGGGGAGGUCACAGU [hsa-mir-4259] and give only the class name.
// result bin 3

// query Sort into band: ACUUUUUUUUUUUUUUUUUUUAAUGUUAAAAGU [hsa-mir-5588]
// result bin 3

// query Lab note: which band did CACACAUACAUAUAUAUAUGUUUG [hsa-mir-3149] land in?
// result bin 1

// query Which category fits this record: GCCUGUGUAGACGGGGACCUGCCCUGCAUGGGCACCCCCUCACUGGC [hsa-mir-6762]
// result bin 1

// query Each sequence maps to one class by pull-down binding Z-score. Which class for AGAACAUUCGUUCACUUUCCU [hsa-mir-6747] ?
// result bin 1

// query Input UAUGUGAUUCUACUGCUCACUCAUAUA [hsa-mir-135a-1] ; output its category
// result bin 2

// query Which bin should I file CUCAGCCUGGAAAAAGCUGAG [hsa-mir-4765] under?
// result bin 3

// query For this sequence, which bin applies? UGAGCAGGCCCAGAACCCAGCUCGUGCUCA [hsa-mir-6794]
// result bin 2

// query Classify this sequence: CAUUCACAUAGACUAUAAUUGAAUG [hsa-mir-652]
// result bin 3

// query Quick check: band for AUGGUUUAGAGUUACACCCUGGGAGUUAACUGU [hsa-let-7c]
// result bin 2

// query Which pull-down binding Z-score band matches CGUGCGCCAGUGGAG [hsa-mir-6089-2_6089-1] ?
// result bin 2

// query Class (by measured pull-down binding Z-score) for UCGUCAGUGUUUGA [hsa-mir-8073]
// result bin 1

// query Into which category would you place CGAUAAACCCCUAAAUAGGGACUUUCCCG [hsa-mir-484] ?
// result bin 1

// query // return the class label for ACCCGGGUGGUGGAGGUUGCAGUGAGCCAAGAUUGCGCCACUGCACUCCAGCCUGGGC [hsa-mir-1273a]
// result bin 2

// query Each sequence maps to one class by pull-down binding Z-score. Which class for GUGAGGUAUUUUAGUAACAUCAC [hsa-mir-125b-2] ?
// result bin 3

* * *

- Tested on: TO-N3 (biotin conjugate)
- assay protocol: pull-down binding Z-score (relative to library population); higher = stronger binding
- condition set: RNA library: Library-2
value type: pull-down binding Z-score
No unit in the answer, only the number.

// query Entry GACUACUAGCGUGCCUUUGUAAGCACAAGCUGAUGAGUACGAACUUAUGUACUCAUUCGUUUCGGAAGAGACAGGUACGUUAAUAGUU [SHAPE_invitro_SARS-CoV-2_Multi_71_ComplexLevel_1] needs its pull-down binding Z-score filled in; supply it.
// result 0.649

// query Answer with the recorded pull-down binding Z-score of GUAUGAGUGUAUUGGUCUUCAUAA [hsa-mir-9-2] only.
// result 0.0907

// query Give pull-down binding Z-score for the following sequence: CAGGUAGUUUUGGCAUGACUCUACUG [hsa-mir-20b]
// result 0.556

// query Specify pull-down binding Z-score for UACUAAUAUGUUUACACCACUAAUUCAACCUAUUGGUGCUUUGGACAUAUCAGCAUCUAUAGUAGCUGGUGGUAUUGUAGCUAUCGUAGUA [SHAPE_invivo_SARS-CoV-2_Motif_188] and stop.
// result 0.303

// query Give me measured pull-down binding Z-score, please, for this sequence: GGUUCUCAGUCAGAACC [hsa-mir-6813]
// result -0.372

// query Kindly indicate its recorded pull-down binding Z-score. Item: UGUUGCUUAUGAAAGUUUACGCCCUGACACACGUUAUGUGCUCAUGGAUGGCUCUAUUAUUCAAUUUCCUAACACCUACCUUGAAGGUUCUGUUAGAGUGGUAACA [SHAPE_invitro_SARS-CoV-2_Multi_27_ComplexLevel_1]
// result -0.452

// query For CUCCAGCACGGAG [IAV_invivo_PB2_1_Motif_21+IAV_invivo_PB2_1_Motif_21] , write its pull-down binding Z-score.
// result -0.877

* * *

- System: TO-N3-2 (biotin conjugate)
- assay protocol: pull-down binding Z-score (relative to library population); higher = stronger binding
- condition set: RNA library: Library-2
Binary call on pull-down binding Z-score: Satisfied from -0.9 upward, Not satisfied beneath that.

// query Reported pull-down binding Z-score at or above -0.9? GUGGUUGACCUACACAGGUGCCAU
// result Satisfied

// query Hi team, for ACCUUUAGUACCUUUCUGGAUAACAAUUGCUUAUAUCAUUUGUAUUUCCACAAAGCAUUUCUAUUGGU , is the recorded pull-down binding Z-score at or above -0.9?
// result Satisfied

// query Answer whether pull-down binding Z-score of GCCGGGGCCUGGCGCUCCUCUACCUUGUCAGGUGACCCAGC [hsa-mir-4274] is greater than or equal to -0.9.
// result Satisfied

// query I'd appreciate it if you could say whether CUUCGGUAUUCAUCAAAAAUACCAAAG [hsa-mir-4735] has pull-down binding Z-score at least equal to -0.9.
// result Not satisfied

// query Reported pull-down binding Z-score at or above -0.9? AGGGGACACGGGCAAAGACUUGGGGGUUCCUGGGACCCUCAGACGUGUGUCCUCU [hsa-mir-877]
// result Satisfied

// query For this sequence, is measured pull-down binding Z-score -0.9 or higher? UGUUACUUUAUAUUGACAUUAAUGGCAAUCUUCAUCCAGAUUCUGCCACUCUUGUUAGUGACA
// result Satisfied

// query Is pull-down binding Z-score for GUUCAGAGUCUGUUUUUGUCUAGC [hsa-mir-29c] at or above -0.9?
// result Satisfied

// query Is it the case that AUGCCCCAGGUGACGUGCUGGGCU [hsa-mir-4526] has pull-down binding Z-score reaching or exceeding -0.9?
// result Satisfied

// query Given the entry GCCACAUGAGCUGGGCCUCGUGGGC [hsa-mir-770] , answer whether its pull-down binding Z-score meets or surpasses -0.9.
// result Satisfied

// query Has AGCAGUACCAGAUGGUUCUGUGG [hsa-mir-3198-2] a recorded pull-down binding Z-score greater than or equal to -0.9?
// result Satisfied

// query # check: pull-down binding Z-score of CUGUCAUGGAAGCAAGUACUGGCAG [IAV_invivo_PA_3_Motif_16+IAV_invivo_PA_3_Motif_16] is greater than or equal to -0.9
// result Satisfied

// query Given AUGUGAUUGCUGUCCCAAACUCAUGU [hsa-mir-135b] , state whether its pull-down binding Z-score is at least -0.9.
// result Satisfied

// query Say whether UGUGUCAAUAUUUAAACACA shows pull-down binding Z-score of -0.9 or more.
// result Not satisfied

// query Given the entry AUGGCAUUUAAGGAUUGCUAU [hsa-mir-4477a] , answer whether its pull-down binding Z-score meets or surpasses -0.9.
// result Satisfied

// query Would you say UCUGUUUGGAACUUUAAUUUUAGCCAUGGCAGA shows pull-down binding Z-score at minimum -0.9?
// result Satisfied

// query Does the reported pull-down binding Z-score for GUCACUGUCUCAAAUCAGUGAC [hsa-mir-549a] fall at or above the -0.9 mark?
// result Not satisfied

// query I'd appreciate it if you could say whether GUGGUGGGCACUGCUGGGGUGGGCACAGCAGCCAUGCAGAGCGGGCAUUUGACCCCGUGCCACCCUUUUCCCCAG [hsa-mir-1227] has pull-down binding Z-score at least equal to -0.9.
// result Satisfied

// query Answer whether pull-down binding Z-score of GUUAAUGCCUAUAUUAACCUUGACCAGGGCUUUAAC is greater than or equal to -0.9.
// result Satisfied

// query Does pull-down binding Z-score meet or surpass -0.9 for CUUGGAAAACUUCAAG ?
// result Satisfied

// query Would you say UGGCAUUAAUGCUUCAGUUGUAAACAUUCAAAAAGAAAUUGACCGCCUCAAUGAGGUUGCCA shows pull-down binding Z-score at minimum -0.9?
// result Satisfied

// query Is the recorded value of pull-down binding Z-score equal to or greater than -0.9 for this sequence? GCCAGACAUGCUCUUGC [hsa-mir-6894]
// result Satisfied

// query Confirm if pull-down binding Z-score reported for the sequence CCUCUUGAGUGCAUUAAAGACCUUCUAGCACGUGCUGGUAAAGCUUCAUGCACUUUGUCCGAACAACUGGACUUUAUUGACACUAAGAGG [SHAPE_invitro_SARS-CoV-2_Multi_2_ComplexLevel_1] is -0.9 or above.
// result Satisfied

// query Answer whether pull-down binding Z-score of CUUUCUGUUGUCUGAAAGAAAGGAAAG [hsa-mir-519a-1_519a-2] is greater than or equal to -0.9.
// result Satisfied

// query Threshold query (pull-down binding Z-score >= -0.9) on UAUUGGGCCAAUUCCCCCAAUG [hsa-mir-4781]
// result Not satisfied

// query Is pull-down binding Z-score at least -0.9? Consider UCCUGUUUACCUUUUACAAUUAAUUGCCAGGA [SHAPE_invivo_SARS-CoV-2_Motif_533]
// result Satisfied

// query Hi team, for CAGAGGUCCCACAGCAGGGCUGGAAAGCACACCUGUGGGACUUCUG [hsa-mir-3922] , is the recorded pull-down binding Z-score at or above -0.9?
// result Satisfied

// query For this sequence, is measured pull-down binding Z-score -0.9 or higher? UAGACAAUUCUAGUCUUACUAUUAAGAAACCUAAUGAAUUAUCUA [SHAPE_invivo_SARS-CoV-2_Motif_135]
// result Not satisfied

// query hey, is pull-down binding Z-score for this one >= -0.9? UCCUGGGAAGCAUGGUAGCCAGGA [hsa-mir-5192]
// result Satisfied

// query Evaluate CAUCAAAACCAAGCAAGAGGUCAUUUAUUGAAGAUCUACUUUUCAACAAAGUGACACUUGCAGAUG [DMSMaPseq_invitro_SARS-CoV-2_Motif_426] : pull-down binding Z-score at minimum -0.9?
// result Satisfied

// query Please check the record CAGUGAGCUAUGAUCAUGUCCCUG [hsa-mir-1254-2] and state if its pull-down binding Z-score is at or above -0.9.
// result Satisfied

// query Could you please find out whether CUUGGGCCCAUUCCUUUCCUUACCCUAC [hsa-mir-6798] has pull-down binding Z-score that meets -0.9 or exceeds it?
// result Satisfied

// query API: above_or_equal(metric=pull-down binding Z-score, cutoff=-0.9) for item UCCCAGGAAAUUCACUUUAGGAAGUCCUAGGA [hsa-mir-5571]
// result Not satisfied

// query I'd appreciate it if you could say whether CCAGAGAAGAAACUGG has pull-down binding Z-score at least equal to -0.9.
// result Satisfied

// query Quick check, pull-down binding Z-score >= -0.9? CCUCUGACUAAGGGG [IAV_invivo_M1_M2_7_Motif_4+IAV_invivo_M1_M2_7_Motif_4]
// result Not satisfied

// query Textbook exercise: given the entry UUGGUCUUUCCCCUGUGGUCCCAA [hsa-mir-2909] , state whether its pull-down binding Z-score is greater than or equal to -0.9.
// result Satisfied

// query hey, is pull-down binding Z-score for this one >= -0.9? UGCUUUUUGUUUCUAACAAAGCA [hsa-mir-4679-2]
// result Not satisfied

// query Threshold query (pull-down binding Z-score >= -0.9) on CUGUCACUAAG
// result Satisfied

// query Threshold query (pull-down binding Z-score >= -0.9) on CUGUUGAAAGAAAAG [hsa-mir-526a-2]
// result Satisfied

// query Kindly determine if pull-down binding Z-score recorded for GGAUUGUACAGAAAGUGUGUUAAAUCC [SHAPE_invivo_SARS-CoV-2_Motif_47] is above or exactly -0.9.
// result Satisfied

// query Record UUGUUCGUUGCAUUUUUAGGAACAA [hsa-mir-3613] ; criterion: pull-down binding Z-score no lower than -0.9. Met?
// result Not satisfied

Just for reference, the supplement of paper PMC11865577 is where these values come from.
